The entries below come with measured mortality values attached.
experiment: Toxicity in ip dosed CD-1 mouse assessed as mortality in presence of 20 mg/kg, ip choline; format: organism-based; parameters: dose 20 mg/kg, route intraperitoneal; details: in vivo
Numbers only here, please. The scale is %.

Need mortality, item C[N+](C)(CCS)CC(=O)c1ccc(-c2ccc(C(=O)C[N+](C)(C)CCS)cc2)cc1.[Br-].[Br-]
10

Need mortality, item C[N+]1(C)CCOC(O)(c2ccc(-c3ccc(C4(O)C[N+](C)(C)CCO4)cc3)cc2)C1.[Br-].[Br-] (centres undefined)
15

Need mortality, item CC(=O)OCC[N+](C)(C)CC(=O)c1ccc(-c2ccc(C(=O)C[N+](C)(C)CCOC(C)=O)cc2)cc1.[Br-].[Br-]
0

Need mortality, item CC(=O)SCC[N+](C)(C)CC(=O)c1ccc(-c2ccc(C(=O)C[N+](C)(C)CCSC(C)=O)cc2)cc1.[Br-].[Br-]
40
